- MEASUREMENT_TARGET: recombinant human CB1 receptors (Homo sapiens, UniProt P21554)
- Sequence (P21554 whole entry): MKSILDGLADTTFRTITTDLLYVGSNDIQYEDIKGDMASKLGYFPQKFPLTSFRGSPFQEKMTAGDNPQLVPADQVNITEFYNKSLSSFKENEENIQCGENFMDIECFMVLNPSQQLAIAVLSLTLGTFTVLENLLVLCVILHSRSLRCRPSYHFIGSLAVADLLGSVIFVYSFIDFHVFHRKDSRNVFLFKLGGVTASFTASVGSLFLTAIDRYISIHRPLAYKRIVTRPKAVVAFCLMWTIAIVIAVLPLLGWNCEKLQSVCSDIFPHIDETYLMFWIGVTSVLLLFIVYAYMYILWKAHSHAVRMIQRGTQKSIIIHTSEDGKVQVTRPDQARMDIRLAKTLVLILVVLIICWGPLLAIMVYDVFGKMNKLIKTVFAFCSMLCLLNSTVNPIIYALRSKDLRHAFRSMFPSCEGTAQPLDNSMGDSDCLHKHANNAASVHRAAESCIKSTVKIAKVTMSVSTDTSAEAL
- METHOD_DESCRIPTION: Binding to CB1 Receptors
- SETTINGS: [3H]-SR-141716A 1 nM; membranes from HEK293 cells expressing recombinant hCB1; Ki calculated from IC50 (Cheng-Prusoff)
pKi: −log10 of the molar value.
Catalogue of pKi values
READOUT_LABEL: pKi

COMPOUND | MEASUREMENT_TARGET | VALUE
CC(C)(C)NC(=O)N1CC(OC(c2ccc(Cl)cc2)c2cccnc2Cl)C1 (single isomer, unassigned) [Example 34] | recombinant human CB1 receptors (Homo sapiens, UniProt P21554) | 8.07
CO[C@H](C(=O)N1CC(OC(c2ccc(Cl)cc2)c2ccc(Cl)cc2Cl)C1)c1ccccc1 (stereo partly drawn) [Example 11] | recombinant human CB1 receptors (Homo sapiens, UniProt P21554) | 8.49
CN(Cc1ccccc1)C(=O)N1CC(OC(c2ccc(Cl)cc2)c2ccccc2C(F)(F)F)C1 (stereo not drawn) [Example 4] | recombinant human CB1 receptors (Homo sapiens, UniProt P21554) | 8.82
CC(C)(C)OC(=O)N1CCCN(C(=O)N2CC(OC(c3ccc(Cl)cc3)c3ccccc3Cl)C2)CC1 (stereo not drawn) [Example 1] | recombinant human CB1 receptors (Homo sapiens, UniProt P21554) | 9.10
CC(C)(C)NC(=O)N1CC(OC(c2ccc(Cl)cc2)c2cccnc2Cl)C1 (racemic) [Example 32] | recombinant human CB1 receptors (Homo sapiens, UniProt P21554) | 7.56
CCCCS(=O)(=O)N1CC(OC(c2ccc(Cl)cc2)c2ccc(Cl)cc2Cl)C1 (stereo not drawn) [Example 20] | recombinant human CB1 receptors (Homo sapiens, UniProt P21554) | 8.26
